All figures here come from paper PMC13242511.

Test system: Notch signalling
Experiment: Notch reporter assay (12xCSL firefly luciferase / renilla luciferase, HEK293T Notch1ΔE reporter cell line clone #A1-11)
Format: cell-based
Conditions: 25µM; 3-point DR confirmation screen, Notch reporter assay
Please go through the items and note down their inhibitor ratio in % of DMSO in 3 point DR.

Look over these answered cases.
{"molecule": "COc1cc(Nc2cc(-c3ccccc3N(C)C)ncn2)cc(OC)c1OC", "reportedMeasurement": "55.7 % of DMSO"}
{"molecule": "c1ccc2oc(CN3Cc4nc[nH]c4C[C@H]3c3nc(-c4ccc5c(c4)OCO5)no3)cc2c1", "reportedMeasurement": "66.3 % of DMSO"}
{"molecule": "O=C(Nc1ccc(O)c(-c2nc3ccccc3o2)c1)c1ccc(-c2ccc([N+](=O)[O-])cc2)o1", "reportedMeasurement": "101.9 % of DMSO"}

Give me inhibitor ratio in % of DMSO in 3 point DR for each of these molecules, listed below.
1. COc1ccc(N(CC(O)CN2CCOCC2)S(=O)(=O)c2ccccc2)cc1 (centres unmarked)
2. O=C(NC(Nc1cccc(C(F)(F)F)c1)C(=O)c1ccccc1)c1ccc(Cl)cc1 (centres unmarked)

100.1 % of DMSO
46.6 % of DMSO
